system: UniProt:P22303
Sequence (P22303 whole entry): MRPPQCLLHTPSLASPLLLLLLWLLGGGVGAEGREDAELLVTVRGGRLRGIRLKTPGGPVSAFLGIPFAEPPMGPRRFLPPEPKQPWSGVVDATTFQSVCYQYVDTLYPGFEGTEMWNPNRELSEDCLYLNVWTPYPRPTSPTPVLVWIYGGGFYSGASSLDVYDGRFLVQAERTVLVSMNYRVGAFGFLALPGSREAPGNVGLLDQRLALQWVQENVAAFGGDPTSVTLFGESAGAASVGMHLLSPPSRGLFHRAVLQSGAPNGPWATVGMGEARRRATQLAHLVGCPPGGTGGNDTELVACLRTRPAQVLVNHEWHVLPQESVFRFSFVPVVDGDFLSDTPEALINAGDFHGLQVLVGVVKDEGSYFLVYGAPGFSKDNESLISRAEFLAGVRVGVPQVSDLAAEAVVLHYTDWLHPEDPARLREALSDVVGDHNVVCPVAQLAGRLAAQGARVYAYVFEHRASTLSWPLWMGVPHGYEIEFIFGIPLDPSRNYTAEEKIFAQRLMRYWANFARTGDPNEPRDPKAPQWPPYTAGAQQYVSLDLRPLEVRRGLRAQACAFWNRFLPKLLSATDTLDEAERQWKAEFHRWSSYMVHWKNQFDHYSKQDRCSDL

>  <molecule>
COc1cc(O)c(C(=O)Nc2nc(C(=O)NCCN(C(C)C)C(C)C)cs2)cc1OC [ACOTIAMIDE]

>  <unit annotation>
µM

>  <IC50>
3

$$$$

###

system: Acetylcholinesterase (Electrophorus electricus, UniProt O42275)
Sequence (O42275 whole entry): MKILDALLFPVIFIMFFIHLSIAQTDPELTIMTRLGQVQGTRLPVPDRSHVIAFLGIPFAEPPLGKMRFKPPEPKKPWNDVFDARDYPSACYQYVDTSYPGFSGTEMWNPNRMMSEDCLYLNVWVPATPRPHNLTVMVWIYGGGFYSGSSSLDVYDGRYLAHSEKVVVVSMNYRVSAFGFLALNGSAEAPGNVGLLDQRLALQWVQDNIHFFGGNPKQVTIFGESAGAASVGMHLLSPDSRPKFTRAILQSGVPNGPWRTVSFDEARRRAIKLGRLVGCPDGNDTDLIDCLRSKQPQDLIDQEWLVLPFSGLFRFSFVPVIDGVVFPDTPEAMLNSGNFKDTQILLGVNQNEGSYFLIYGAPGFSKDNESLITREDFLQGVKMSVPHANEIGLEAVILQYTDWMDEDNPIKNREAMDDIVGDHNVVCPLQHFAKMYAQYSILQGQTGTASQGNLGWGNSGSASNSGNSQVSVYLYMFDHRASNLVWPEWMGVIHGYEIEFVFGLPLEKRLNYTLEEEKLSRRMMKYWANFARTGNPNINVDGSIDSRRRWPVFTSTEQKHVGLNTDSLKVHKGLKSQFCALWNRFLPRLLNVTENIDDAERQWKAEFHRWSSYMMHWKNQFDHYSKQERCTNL
pIC50: −log10 of the molar value.
Parameter class (string): assigned from measured pIC50. Ranges: bucket 1 = under 5, bucket 2 = from 5 up to 7, bucket 3 = 7 and over

>  <compound>
COc1cc2c(cc1OC)C(=O)C(CC1CCN(Cc3cccc(CN)c3)CC1)C2 (centres undefined)

>  <class assignment>
bucket 2

$$$$
>  <compound>
O=C1c2ccccc2C(=O)N1CCC1CCN(Cc2ccccc2)CC1

>  <class assignment>
bucket 3

$$$$
>  <compound>
NCc1cccc(CN2CCC(CCN3C(=O)c4ccccc4C3=O)CC2)c1

>  <class assignment>
bucket 2

$$$$
>  <compound>
COc1cc2c(cc1OC)C(=O)C(CC1CCN(Cc3ccc(CN)cc3)CC1)C2 (centres undefined)

>  <class assignment>
bucket 2

$$$$
>  <compound>
COc1cc2c(cc1OC)C(=O)C(CC1CCN(CCCCN)CC1)C2 (centres undefined)

>  <class assignment>
bucket 1

$$$$
>  <compound>
COc1cc2c(cc1OC)C(=O)C(CC1CCN(C(=O)c3ccccc3)CC1)C2 (centres undefined)

>  <class assignment>
bucket 1

$$$$
>  <compound>
NCc1ccc(CN2CCC(CCN3C(=O)c4ccccc4C3=O)CC2)cc1

>  <class assignment>
bucket 2

$$$$
>  <compound>
COc1cc2c(cc1OC)C(=O)C(CC1CCN(Cc3cccc(N)c3)CC1)C2 (centres undefined)

>  <class assignment>
bucket 3

$$$$
>  <compound>
COc1cc2c(cc1OC)C(=O)C(CC1CCN(Cc3ccc(C(=O)O)cc3)CC1)C2 (centres undefined)

>  <class assignment>
bucket 1

$$$$
>  <compound>
Nc1ccc(CN2CCC(CCN3C(=O)c4ccccc4C3=O)CC2)cc1

>  <class assignment>
bucket 2

$$$$

###

test protocol: in vitro
assay conditions: PAMPA
The threshold is 3 ×10⁻⁶ cm/s. Values of Papp at 8 h beneath it are tagged yes (1); values meeting or exceeding it are tagged no (0).

>  <compound>
NCCc1ccc(O)c(O)c1

>  <class assignment>
no (0)

$$$$
>  <compound>
Clc1cccc(Cl)c1N=C1NCCN1

>  <class assignment>
no (0)

$$$$
>  <compound>
O=C1c2ccccc2C(=O)N1CC1CCN(Cc2ccccc2)CC1

>  <class assignment>
no (0)

$$$$
>  <compound>
COc1cc2c(cc1OC)C(=O)C(CC1CCN(Cc3cccc(CN)c3)CC1)C2 (configuration not stated)

>  <class assignment>
yes (1)

$$$$
>  <compound>
COc1cc2c(cc1OC)C(=O)C(CC1CCN(Cc3cccc(N)c3)CC1)C2 (configuration not stated)

>  <class assignment>
no (0)

$$$$
>  <compound>
Nc1cccc(CN2CCC(CCN3C(=O)c4ccccc4C3=O)CC2)c1

>  <class assignment>
yes (1)

$$$$
>  <compound>
NCc1cccc(CN2CCC(CCN3C(=O)c4ccccc4C3=O)CC2)c1

>  <class assignment>
yes (1)

$$$$

###

system: Acetylcholinesterase (Electrophorus electricus, UniProt O42275)
pIC50: −log10 of the molar value.
reported endpoint: pIC50

>  <compound>
COc1cc2c(cc1OC)C(=O)C(CC1CCN(Cc3cccc(NC(=O)c4ccccc4)c3)CC1)C2 (stereo not given)

>  <experimental value>
4.64

$$$$
>  <compound>
O=C(c1ccccc1)N1CCC(CCN2C(=O)c3ccccc3C2=O)CC1

>  <experimental value>
4.20

$$$$
>  <compound>
COc1cc2c(cc1OC)C(=O)C(CC1CCN(CCN)CC1)C2 (stereo not given)

>  <experimental value>
4.95

$$$$
>  <compound>
O=C1c2ccccc2C(=O)N1CC1CCN(Cc2ccccc2)CC1

>  <experimental value>
4.64

$$$$
>  <compound>
Nc1ccc(CN2CCC(CN3C(=O)c4ccccc4C3=O)CC2)cc1

>  <experimental value>
4.60

$$$$

###

IC50, Acetylcholinesterase (Electrophorus electricus), per-entry values.

>  <molecule>
COc1cc2c(cc1OC)C(=O)C(CC1CCNCC1)C2 (centres undefined)

>  <IC50>
9.45 µM

$$$$
>  <molecule>
COc1cc2c(cc1OC)C(=O)C(CC1CCN(CCCN)CC1)C2 (centres undefined)

>  <IC50>
10.8 µM

$$$$
>  <molecule>
COc1cc2c(cc1OC)C(=O)C(CC1CCN(Cc3ccc(N)cc3)CC1)C2 (centres undefined)

>  <IC50>
0.0991 µM

$$$$
>  <molecule>
Nc1cccc(CN2CCC(CCN3C(=O)c4ccccc4C3=O)CC2)c1

>  <IC50>
0.15 µM

$$$$
